# target under test: BTK^wt (Homo sapiens, UniProt Q06187)
# Sequence (Q06187 whole entry): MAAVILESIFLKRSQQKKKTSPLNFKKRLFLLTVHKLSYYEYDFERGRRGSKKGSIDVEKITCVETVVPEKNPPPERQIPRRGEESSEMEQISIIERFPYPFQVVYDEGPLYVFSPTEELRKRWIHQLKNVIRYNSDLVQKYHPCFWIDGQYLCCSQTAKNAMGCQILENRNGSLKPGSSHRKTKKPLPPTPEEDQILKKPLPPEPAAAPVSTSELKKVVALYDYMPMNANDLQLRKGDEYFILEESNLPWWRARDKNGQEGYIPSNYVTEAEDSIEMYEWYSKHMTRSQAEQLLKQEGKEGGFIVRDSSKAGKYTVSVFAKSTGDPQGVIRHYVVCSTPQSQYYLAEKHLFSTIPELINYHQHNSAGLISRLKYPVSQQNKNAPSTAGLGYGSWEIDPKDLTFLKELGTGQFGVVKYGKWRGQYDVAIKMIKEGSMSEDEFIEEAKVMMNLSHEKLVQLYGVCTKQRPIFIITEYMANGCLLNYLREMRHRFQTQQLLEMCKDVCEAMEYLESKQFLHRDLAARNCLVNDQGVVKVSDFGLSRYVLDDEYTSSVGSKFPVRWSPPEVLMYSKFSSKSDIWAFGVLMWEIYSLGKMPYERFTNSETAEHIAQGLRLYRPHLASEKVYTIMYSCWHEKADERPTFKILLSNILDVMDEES
# assay method text: BTK kinase activity assay, 33P-ATP filtration
test readout: EC50
# include the unit after the value

Problem: Report measured EC50; entry is CC#CC(=O)N1CC[C@@H](n2cc(-c3ccc(Oc4c(F)cccc4F)cc3)c3c(N)n[nH]c(=O)c32)C1
Result: 6.7 nM

----------
# target under test: BTK (Homo sapiens)
# Sequence (Q06187 whole entry): as above
test readout: Kd (nM)
# value in nM; strip the unit string

Problem: Fill in: Kd on BTK (Homo sapiens), entry CC#CC(=O)N1CC[C@@H](n2cc(-c3ccc(Oc4c(F)cccc4F)cc3)c3c(N)n[nH]c(=O)c32)C1
Result: 3
